- Test system: BT-549
- testProtocol: NCI tumour cell line growth inhibition, 48 h
Active and inactive are the calls of the source. Rule as the data show it: active = GI50 up to about 1.1 µM and inactive = higher.
property: GI50

| compound | GI50 |
| --- | --- |
| O=C1CN(c2ccccc2)C(=O)CN1CCN1CC(=O)N(c2ccccc2)CC1=O | > 100 µM (inactive) |

Query: GI50; subject: CCCCn1c(CSc2ccc(Cl)cc2)c(C(=O)OCC)c2cc(OC)c(Br)cc21
> 100 µM (inactive)

Query: GI50; subject: O=C(O)C1C(C(=O)O)C(C(=O)O)C1C(=O)O (stereo not given)
> 100 µM (inactive)

Query: GI50; subject: S=C(S)NCC1CCC(CNC(=S)S)CC1 (stereo not given)
44.1 µM (inactive)

====

Consider the following compounds and their measured GI50 readings.
- System: T47D
- testProtocol: NCI tumour cell line growth inhibition, 48 h
Calls of active or inactive are those of the source. Cut-off read from the data, not from the text of the source: active = GI50 up to about 1.1 µM and inactive = higher.

Completed entries (count: 2):
| chemicalString | property | result |
| --- | --- | --- |
| CSc1nc(SC)c2c(CN=[N+]=[N-])c(Br)n(Cc3ccccc3)c2n1 | GI50 | 11.7 µM (inactive) |
| O[C@@H]1C[C@H](Cl)c2c(Cl)sc(Cl)c21 | GI50 | 33.4 µM (inactive) |

# query: GI50 | item Nc1ccc([As](=O)(O)O)cc1 | system: T47D
> 100 µM (inactive)

====

Consider the following molecules and their measured GI50 readings.
- System: A549
- testProtocol: NCI tumour cell line growth inhibition, 48 h
Calls of active or inactive are those of the source. Cut-off read from the data, not from the text of the source: active = GI50 up to about 1.1 µM and inactive = higher.

Completed entries (count: 5):
| molecule | result |
| --- | --- |
| C[C@H]1CCC2C(OC(=O)[C@@H]2CN(C)C)[C@]2(C)C(=O)C=CC12O (stereo partly specified) | 24.8 µM (inactive) |
| O=C1c2ccccc2C2(O)N(c3ccccc3)C(=S)N(c3ccccc3)C12O (stereo unspecified) | > 100 µM (inactive) |
| COc1ccc2c(c1)O[C@@H]1[C@@H](OC3OC(CO)C(O)C(O)C3O)Oc3cc(OC)c(OC)cc3[C@]1(O)C2=O (stereo partly specified) | > 100 µM (inactive) |
| CCOC(=O)[C@@]12C3C=CC(CC3)[C@]1(C(=O)c1ccccc1)C(=O)C(=O)N2c1ccccc1 (stereo partly specified) | > 100 µM (inactive) |
| CC1(Cl)C(=O)NC(=O)N(C2CC(N=[N+]=[N-])C(CO)O2)C1N=[N+]=[N-] (stereo unspecified) | > 100 µM (inactive) |

Query: GI50; subject: Nc1ccc([As](=O)(O)O)cc1
> 100 µM (inactive)

Query: GI50; subject: CC1(C)CO[P@@](=S)(c2ccccn2)O[C@@H]1c1ccccc1
> 100 µM (inactive)

Query: GI50; subject: CS(=O)(=O)Nc1ccc(NCc2c[nH]c3ccc4ncccc4c23)cc1
43.4 µM (inactive)

Query: GI50; subject: Cc1nc(Cl)c(CBr)c(Cl)n1
6.3 µM (inactive)

Query: GI50; subject: CCOC(=O)c1cn2c(ccc3sc4ccccc4c(=O)c32)n1
> 100 µM (inactive)

Query: GI50; subject: O=C1CCCCCCCCCCC(=O)C2CCOCCOCCOCCC1Cc1cccc(n1)C2
> 100 µM (inactive)

Query: GI50; subject: O=C1C=C2S[C@H]3C[C@]2(C=C1Br)C1=C(N3)C(=O)c2[nH]cc3c2C1=NCC3 [(+)-DISCORHABDIN B]
2.47 µM (inactive)
